Data origin, for the record: ChEMBL document CHEMBL4689842

Tested on: U2OS
Assay remarks: Multiplex assay against U2OS
Assay type: toxicity, cell-based
Reported conditions: human, 48 h, 10 µM, compound concentration 10 uM, replicate 1
Rule: Population Healthy Nuclei (%) below 30% gives Criterion met. Equal to or above 30% gives Criterion not met.

Worked examples, 2 molecules total:
                                   molecule        class_label
0  CCOC(=O)Nc1cc(-c2ccc(C)c(NS(C)(=O)=O)c2)nn2c(C)nnc12  Criterion not met
1  COc1cc(Nc2nccc(-c3cnn4nc(OC)ccc34)n2)cc(C(F)(F)F)c1  Criterion not met

Threshold test, Population Healthy Nuclei (%) < 30%: COC(=O)C1=C(C)NC(C)=C(C(=O)OCCCN2CCC(c3ccccc3)(c3ccccc3)CC2)[C@H]1c1cccc([N+](=O)[O-])c1 [NIGULDIPINE]
Criterion met

One more molecule: "Cc1ccc(C)c(Oc2ccncc2C(=O)N2CCN(C3CC3)c3ccccc32)c1"
Criterion not met

One more molecule: "O=c1cc(N2CCOCC2)oc2c(-c3cccc4c3sc3ccccc34)cccc12"
Criterion met

One more molecule: Cc1ccc2c(c1)c1c(n2CCc2ccc(C)nc2)CCN(C)C1 [LATREPIRDINE]
Criterion not met

One more molecule: Cc1c[nH]c2nccc(Oc3c(F)cc(Nc4cc(Cl)nc(N)n4)cc3F)c12 [BAY-549]
Criterion not met

One more molecule: CCCSc1nc(N[C@@H]2C[C@H]2c2ccc(F)c(F)c2)c2nnn([C@@H]3C[C@H](OCCO)[C@@H](O)[C@H]3O)c2n1 [TICAGRELOR]
Criterion not met

----------
Test system: HEK-293T
Assay remarks: Multiplex assay against HEK293T
Type: toxicity, cell-based
Reported conditions: human, 48 h, 10 µM, compound concentration 10 uM, replicate 2
Attribute measured: Total Cell Count
Lab note: record just the number, no unit beside it.

Guide cases for Total Cell Count, answers given:
                                   compound  readout_value
0  CC(C)(C)NC[C@H](O)COc1nsnc1N1CCOCC1 [TIMOLOL]            660
1  CC(C)Oc1ccccc1C(=O)Nc1ccccc1C(=O)Nc1cccc(S(=O)(=O)C(F)(F)F)c1            251
2  COc1cc2ncn(-c3cc(OCc4ccccc4C(F)(F)F)c(C(N)=O)s3)c2cc1OC [GW843682X]            247

Consider the compound "COc1cc(Nc2nccc(-c3cnn4nc(OC)ccc34)n2)cc(C(F)(F)F)c1" and give its measured Total Cell Count.
297

One more compound: CC(C)c1noc(N2CCC(COc3ccc(-c4ccc(S(C)(=O)=O)cc4)nc3)CC2)n1 [GSK-1292263]
176

One more compound: "CCc1ccc(OCc2ccccc2C(=O)Nc2ccc3nc(C)cc(N)c3c2)cc1.Cl"
176

One more compound: "O=c1cc(N2CCOCC2)oc2c(-c3cccc4c3sc3ccccc34)cccc12"
185

One more compound: COC(=O)C1=C(C)NC(C)=C(C(=O)OCCCN2CCC(c3ccccc3)(c3ccccc3)CC2)[C@H]1c1cccc([N+](=O)[O-])c1 [NIGULDIPINE]
201

One more compound: O=C(c1cc2c(cc1F)OC(c1ccc(F)cc1)(c1ccc(Cl)cc1Cl)O2)N1CCOCC1 (centres undefined)
158

----------
Test system: U2OS
Assay remarks: Multiplex assay against U2OS
Format: toxicity, cell-based
Reported conditions: human, 12 h, 10 µM, compound concentration 10 uM, replicate 1
Parameter Population Pyknosed Nuclei (%): see the listing below.
Quick note: give the figure in %, leave out the unit.

Guide cases for Population Pyknosed Nuclei (%), answers given:
>>> print(df.to_string())
                                   molecule  subject_of_test  readout_value
0       CC(C)(C)NC[C@H](O)COc1nsnc1N1CCOCC1             U2OS             14
1  CC(C)c1noc(N2CCC(COc3ccc(-c4ccc(S(C)(=O)=O)cc4)nc3)CC2)n1             U2OS             15
2  C=CC(=O)Nc1ccc2[nH]c(=O)n(C3CCN(Cc4ccc(-c5nc6cc[nH]c(=O)c6cc5-c5ccccc5)cc4)CC3)c2c1             U2OS             13
3  COC(=O)C1=C(C)NC(C)=C(C(=O)OCCCN2CCC(c3ccccc3)(c3ccccc3)CC2)[C@H]1c1cccc([N+](=O)[O-])c1             U2OS             33
4  O=c1cc(N2CCOCC2)oc2c(-c3cccc4c3sc3ccccc34)cccc12             U2OS             32

Consider the molecule CC1=C(C(=O)Nc2cc3cn[nH]c3cc2F)C(c2ccc(C(F)(F)F)cc2)CC(=O)N1 (stereo not drawn) and give its measured Population Pyknosed Nuclei (%).
14

One more molecule: "C=CC(=O)Nc1cccc(Sc2nc(Nc3ccc(N4CCN(C)CC4)cc3)ncc2Cl)c1"
10

One more molecule: "O=c1[nH]c2ccccc2n1C1CCN(Cc2ccc(-c3[nH]c4cc5ncnc5cc4nc3-c3ccccc3)cc2)CC1"
13

----------
System: HEK-293T
Assay remarks: Multiplex assay against HEK293T
Assay type: toxicity, cell-based
Reported conditions: human, 24 h, 10 µM, compound concentration 10 uM, replicate 1
Attribute measured: Population Fragmented Nuclei (%)
Quick note: give the figure in %, leave out the unit.

Guide cases for Population Fragmented Nuclei (%), answers given:
In [3]: df
Out[3]:
                                   molecule  readout_value
0  COc1cc(Nc2nccc(-c3cnn4nc(OC)ccc34)n2)cc(C(F)(F)F)c1             33
1  Cc1ccc2c(c1)c1c(n2CCc2ccc(C)nc2)CCN(C)C1 [LATREPIRDINE]             35

Consider the molecule "CNC(=O)Nc1ccc2c(c1)[C@@]1(CC2)OC(=O)N(CC(=O)N(Cc2ccc(F)cc2)[C@@H](C)C(F)(F)F)C1=O" and give its measured Population Fragmented Nuclei (%).
15

One more molecule: "C=CC(=O)Nc1cccc(Oc2nc(Nc3ccc(N4CCN(C)CC4)cc3OC)ncc2Cl)c1"
11

One more molecule: "Cc1nc(N2CC[C@H](O)C2)ncc1-c1cc(C(F)(F)F)cc2[nH]ncc12"
10

One more molecule: COc1cc2ncn(-c3cc(OCc4ccccc4C(F)(F)F)c(C(N)=O)s3)c2cc1OC [GW843682X]
11

One more molecule: "Cc1c[nH]c2nccc(Oc3c(F)cc(Nc4cc(Cl)nc(N)n4)cc3F)c12"
11

One more molecule: "CCCSc1nc(N[C@@H]2C[C@H]2c2ccc(F)c(F)c2)c2nnn([C@@H]3C[C@H](OCCO)[C@@H](O)[C@H]3O)c2n1"
35

One more molecule: "CC(C)Oc1ccccc1C(=O)Nc1ccccc1C(=O)Nc1cccc(S(=O)(=O)C(F)(F)F)c1"
18

One more molecule: O=C(c1cc2c(cc1F)OC(c1ccc(F)cc1)(c1ccc(Cl)cc1Cl)O2)N1CCOCC1 (configuration not stated)
11

One more molecule: "O=c1[nH]c2ccccc2n1C1CCN(Cc2ccc(-c3[nH]c4cc5ncnc5cc4nc3-c3ccccc3)cc2)CC1"
12

One more molecule: CCc1nn(CCCN2CCN(c3cccc(Cl)c3)CC2)c(=O)n1CCOc1ccccc1.Cl [NEFAZODONE HYDROCHLORIDE]
25

----------
Test system: HEK-293T
Assay remarks: Multiplex assay against HEK293T
Type: toxicity, cell-based
Reported conditions: human, 12 h, 1 µM, compound concentration 1 uM, replicate 1
Parameter Population Membrane Permeable-Phenotype (%): see the listing below.
Quick note: give the figure in %, leave out the unit.

In [3]: df
Out[3]:
                                   molecule  readout_value
0  O=C(c1cc2c(cc1F)OC(c1ccc(F)cc1)(c1ccc(Cl)cc1Cl)O2)N1CCOCC1 (stereo unspecified)              1

Notebook: pull reported Population Membrane Permeable-Phenotype (%) for HEK-293T, entry COc1cc2ncn(-c3cc(OCc4ccccc4C(F)(F)F)c(C(N)=O)s3)c2cc1OC [GW843682X]
5

One more molecule: C[C@]12CC[C@@H]3c4ccc(O)cc4CC[C@H]3[C@@H]1CC[C@@H]2O [ESTRADIOL]
1

One more molecule: "CCOC(=O)Nc1cc(-c2ccc(C)c(NS(C)(=O)=O)c2)nn2c(C)nnc12"
3

One more molecule: CCCSc1nc(N[C@@H]2C[C@H]2c2ccc(F)c(F)c2)c2nnn([C@@H]3C[C@H](OCCO)[C@@H](O)[C@H]3O)c2n1 [TICAGRELOR]
4

One more molecule: "CCc1ccc(OCc2ccccc2C(=O)Nc2ccc3nc(C)cc(N)c3c2)cc1.Cl"
33

One more molecule: CC(C)(C)NC[C@H](O)COc1nsnc1N1CCOCC1 [TIMOLOL]
4

One more molecule: "C=CC(=O)Nc1cccc(Oc2nc(Nc3ccc(N4CCN(C)CC4)cc3OC)ncc2Cl)c1"
13

One more molecule: C=CC(=O)Nc1ccc2[nH]c(=O)n(C3CCN(Cc4ccc(-c5nc6cc[nH]c(=O)c6cc5-c5ccccc5)cc4)CC3)c2c1 [Borussertib]
5

One more molecule: "CC(C)Oc1ccccc1C(=O)Nc1ccccc1C(=O)Nc1cccc(S(=O)(=O)C(F)(F)F)c1"
3

One more molecule: "CC(C)OC(=O)N1CCC(Oc2ncnc3c2cnn3-c2ccc(S(C)(=O)=O)cc2F)CC1"
4

One more molecule: "Cl.O=C(O)c1cc(-c2ccc(C3CCNCC3)cc2)c2ccc(-c3ccc(C(F)(F)F)cc3)cc2c1"
0

One more molecule: "O=c1[nH]c2ccccc2n1C1CCN(Cc2ccc(-c3[nH]c4cc5ncnc5cc4nc3-c3ccccc3)cc2)CC1"
7

One more molecule: "COc1cc(Nc2nccc(-c3cnn4nc(OC)ccc34)n2)cc(C(F)(F)F)c1"
2

One more molecule: "CNC(=O)Nc1ccc(-c2nc(N3CC4CCC(C3)O4)c3cnn(C4CCC5(CC4)OCCO5)c3n2)cc1"
0

One more molecule: CN1CCN(Cc2ccc(Nc3ncc(Cl)c(Nc4ccccc4S(=O)(=O)N(C)C)n3)cc2)CC1 [DUBERMATINIB]
0

One more molecule: Cc1ccc2c(c1)c1c(n2CCc2ccc(C)nc2)CCN(C)C1 [LATREPIRDINE]
0

One more molecule: COc1ccccc1CN[C@H]1C2CCN(CC2)[C@H]1C(c1ccccc1)c1ccccc1 [CP-96345]
0

One more molecule: CC1=C(C(=O)Nc2cc3cn[nH]c3cc2F)C(c2ccc(C(F)(F)F)cc2)CC(=O)N1 (stereo unspecified)
3

One more molecule: Cc1cccc(CN2CCN(C(c3ccccc3)c3ccc(Cl)cc3)CC2)c1.Cl.Cl (stereo unspecified)
0

One more molecule: CNC(=O)Nc1ccc2c(c1)[C@@]1(CC2)OC(=O)N(CC(=O)N(Cc2ccc(F)cc2)[C@@H](C)C(F)(F)F)C1=O [A-486]
17
